Test system: MS2 coat protein
TEST_PROTOCOL: apparent KD of MS2 coat protein; designed switch direction (-1 OFF switch, 1 ON switch): -1; higher = weaker reporter binding
CONDITION_LABEL: input ligand: none
REPORTED_PROPERTY: apparent KD of MS2 coat protein (nM)

>  <SEQUENCE_INPUT>
GUAGAGUCAGGAUAUACAAGAUCGAUAGAUCAAAGACCCAUACAUGAGGAUCACCCAUGUAGAAGGGACUCUAC [Mat - Exclusion 2 - Eli Mod - D11] (Eterna round: R97, puzzle: Exclusion 2)

>  <REPORTED_PROPERTY>
apparent KD of MS2 coat protein

>  <RESULT_NUMBER>
18.7

$$$$
>  <SEQUENCE_INPUT>
GAAAACGCAGAGGAUAUAUCAGAUCAAAGCUGCAUAGAAGGCUGCACAUGAGGAUCACCCAUGUGGUCUUCAAU [Mat - Exclusion 6 - JL Mod - D5] (Eterna round: R97, puzzle: Exclusion 6)

>  <REPORTED_PROPERTY>
apparent KD of MS2 coat protein

>  <RESULT_NUMBER>
23.8

$$$$
